Listed here are molecules together with their documented IC50.
- targetOrSystem: Human Factor D (Homo sapiens (Human), UniProt P00746)
- Sequence (P00746 26-253): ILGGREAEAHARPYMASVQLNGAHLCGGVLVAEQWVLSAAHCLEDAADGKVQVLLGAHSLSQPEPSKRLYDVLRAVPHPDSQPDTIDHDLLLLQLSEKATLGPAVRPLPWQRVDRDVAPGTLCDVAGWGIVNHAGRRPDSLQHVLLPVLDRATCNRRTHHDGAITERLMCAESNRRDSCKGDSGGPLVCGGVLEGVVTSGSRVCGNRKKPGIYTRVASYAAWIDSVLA
- assayRemarks: Human Factor D assay (Z-L-Lys-SBzl / DTNB, absorbance at 405 nm)
- Type: biochemical
- conditionsUsed: Table 3; Human Factor D 80 nM, assay of Example 13

molecule: N#Cc1cc(CC(=O)N2C[C@H](F)C[C@H]2C(=O)Nc2cccc(-c3ccccc3Cl)c2F)ccc1Cl
IC50: 1000 to 10000 nM
//
molecule: NC(=O)c1ccc(Cl)c(-c2cccc(NC(=O)[C@@H]3C[C@@H](F)CN3C(=O)Cn3nc(C(N)=O)c4sc(C(F)(F)F)cc43)c2F)c1
IC50: < 1000 nM
//
molecule: CS(=N)(=O)c1cccc(-c2cccc(NC(=O)[C@@H]3C[C@@H](F)CN3C(=O)Cn3nc(C(N)=O)c4ccccc43)c2F)c1 (stereo partly drawn)
IC50: 1000 to 10000 nM
